Origin of values: paper PMC9482650

Recorded pKd by entry
Target: SCRIB_3, Q14160
Sequence (Q14160 999-1103): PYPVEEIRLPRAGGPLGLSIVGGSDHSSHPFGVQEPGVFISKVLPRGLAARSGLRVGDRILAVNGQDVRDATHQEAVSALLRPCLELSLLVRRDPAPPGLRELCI
Assay: holdup assay
Set-up: key: below the threshold = too weak to quantify, mostly under pKd 3.1 to 4
Conditions: plain residues with an end cap or a label only (N-terminal biotin on a linker: ado-ado)
The answer should be written as a number, with no unit following it.

binder: STYCDYTIEI [FAM71C, Q8NEG0]
pKd: 4.06

Request: // Input: NNMAFETTHF [SLC5A12, Q1EHB4] . Output its pKd only.
Response: 4.02
